Data origin: PubChem BioAssay

- System: Sam68 (KHDRBS1)
- ASSAY_REMARKS: compounds binding KHDRBS1 protein – biochemical, small-molecule microarray, 635 nm fluorescence, primary screen (AID 1125);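 further: score merges 667 nm channel intensity with signal to noise over triplicate slides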
- PARTICULARS: higher = more signal
Kindly state composite z-score for each of the entries shown.
Numbers only.

CCCc1cc2c(n1Cc1cccc(Cl)c1)C(C)C1CN(C(=O)c3ccccc3)C(C)(C(=O)OC)C21 (stereo not drawn) = 0.958
COC(=O)[C@H]1[C@H](c2ccccc2)C(=O)[C@]2(O)c3ccccc3O[C@@]12c1ccccc1 = 0.198
COC(=O)[C@H]1[C@@H](O)[C@@]2(O)c3c(OC)cc(OC)cc3O[C@@]2(c2ccc(OC)cc2)[C@@H]1c1ccccc1 = 0.34
CCCC[C@@H]1C[C@H]1[C@@H](NP(=O)(c1ccccc1)c1ccccc1)c1ccc(Cl)cc1 = -0.331
OCc1ccc(C2=CC(C3CC3)N(Cc3sc4ccccc4c3Cl)CC2)cc1 (stereo not drawn) = 1.07

List composite z-score for every entry below, keeping the order given.
1. COC(=O)C1(C)C=C2C(=C(C)C(=O)C2C)CN1 (stereo not drawn)
2. COc1cc2c(cc1O)C(C)N(C)CC2 (stereo not drawn)
3. CN1CCC(c2ccc(CO)cc2)=CC1C1CC1 (stereo not drawn)
4. COC(=O)[C@@]1(Cc2ccc(F)cc2)[C@H]2c3cc(C(=O)N(C)C)[nH]c3C[C@H]2CN1C(=O)c1ccccc1
5. CCc1cc2c(nc1CC)CCN(CCC(C)=NOC)C2
6. CN1CCC(c2ccc(CO)cc2)=CC1c1cccs1 (stereo not drawn)
7. COC(=O)NCC=Cc1nc(CCC=CC(=O)O[C@H]2CC3CC(=O)O[C@@H](C=CCC(C)C)C[C@@H]4CC[C@H](C)[C@@H](C[C@@H](OC)C[C@H](C2)O3)O4)co1

1. -0.326
2. -1.24
3. -0.172
4. 0.361
5. 0.92
6. -1.28
7. -1.03

What value of composite z-score has been reported for the following compound? COC(=O)[C@H]1C(=O)c2ccccc2O[C@@](C(=O)OC)(c2ccccc2)[C@@H]1c1ccccc1
-0.988
